test_summary: in vitro
experimental_context: beagle, dog, plasma
measure: remaining at 2 h, 2 μM (%)
Numbers only here, please. The scale is %.

The examples below pair each entry with its known result.
O=C(CCCC(NC(=O)c1ccc(Cl)cc1Cl)C(=O)O)N[C@@H]1C(=O)N2C(C(=O)O)=C(CSc3cccc[n+]3[O-])CS[C@H]12 (some centres unmarked)	77.9
O=C(Cc1ccc(C2=NCCN2)cc1)N[C@@H]1C(=O)N2C(C(=O)O)=C(CSc3nncs3)CS[C@H]12	77.3
CN(C)C(=S)SCC1=C(C(=O)O)N2C(=O)[C@@H](NC(=O)Cc3cccs3)[C@H]2SC1	104
O=C(Cc1cccs1)N[C@@H]1C(=O)N2C(C(=O)O)=C(CSc3cccc[n+]3[O-])CS[C@H]12	54.7

Continue with the next compound.
Requested read-out: remaining at 2 h, 2 μM. Entry: O=C(O)C1=C(CSc2cccc[n+]2[O-])CS[C@@H]2[C@H](NC(=O)/C(=N\Oc3ccccc3)c3ccco3)C(=O)N12
51.3
